# system-tested: ATP-binding cassette sub-family C member 4 (Homo sapiens)
# assay-info: TP_TRANSPORTER: inhibition of E217betaG uptake in membrane vesicles from MRP4-expressing Sf9 cells
observation-type: pIC50
Scale: negative log10 of molar concentration, which is what pIC50 denotes.

For record C[C@]12CC[C@H](OS(=O)(=O)O)CC1=CC[C@@H]1[C@@H]2CC[C@]2(C)C(=O)CC[C@@H]12 the listed pIC50 is 5.52

----------
# system-tested: MRP4 (ATP-binding cassette sub-family C member 4) (Homo sapiens, UniProt O15439)
# Sequence (O15439 whole entry): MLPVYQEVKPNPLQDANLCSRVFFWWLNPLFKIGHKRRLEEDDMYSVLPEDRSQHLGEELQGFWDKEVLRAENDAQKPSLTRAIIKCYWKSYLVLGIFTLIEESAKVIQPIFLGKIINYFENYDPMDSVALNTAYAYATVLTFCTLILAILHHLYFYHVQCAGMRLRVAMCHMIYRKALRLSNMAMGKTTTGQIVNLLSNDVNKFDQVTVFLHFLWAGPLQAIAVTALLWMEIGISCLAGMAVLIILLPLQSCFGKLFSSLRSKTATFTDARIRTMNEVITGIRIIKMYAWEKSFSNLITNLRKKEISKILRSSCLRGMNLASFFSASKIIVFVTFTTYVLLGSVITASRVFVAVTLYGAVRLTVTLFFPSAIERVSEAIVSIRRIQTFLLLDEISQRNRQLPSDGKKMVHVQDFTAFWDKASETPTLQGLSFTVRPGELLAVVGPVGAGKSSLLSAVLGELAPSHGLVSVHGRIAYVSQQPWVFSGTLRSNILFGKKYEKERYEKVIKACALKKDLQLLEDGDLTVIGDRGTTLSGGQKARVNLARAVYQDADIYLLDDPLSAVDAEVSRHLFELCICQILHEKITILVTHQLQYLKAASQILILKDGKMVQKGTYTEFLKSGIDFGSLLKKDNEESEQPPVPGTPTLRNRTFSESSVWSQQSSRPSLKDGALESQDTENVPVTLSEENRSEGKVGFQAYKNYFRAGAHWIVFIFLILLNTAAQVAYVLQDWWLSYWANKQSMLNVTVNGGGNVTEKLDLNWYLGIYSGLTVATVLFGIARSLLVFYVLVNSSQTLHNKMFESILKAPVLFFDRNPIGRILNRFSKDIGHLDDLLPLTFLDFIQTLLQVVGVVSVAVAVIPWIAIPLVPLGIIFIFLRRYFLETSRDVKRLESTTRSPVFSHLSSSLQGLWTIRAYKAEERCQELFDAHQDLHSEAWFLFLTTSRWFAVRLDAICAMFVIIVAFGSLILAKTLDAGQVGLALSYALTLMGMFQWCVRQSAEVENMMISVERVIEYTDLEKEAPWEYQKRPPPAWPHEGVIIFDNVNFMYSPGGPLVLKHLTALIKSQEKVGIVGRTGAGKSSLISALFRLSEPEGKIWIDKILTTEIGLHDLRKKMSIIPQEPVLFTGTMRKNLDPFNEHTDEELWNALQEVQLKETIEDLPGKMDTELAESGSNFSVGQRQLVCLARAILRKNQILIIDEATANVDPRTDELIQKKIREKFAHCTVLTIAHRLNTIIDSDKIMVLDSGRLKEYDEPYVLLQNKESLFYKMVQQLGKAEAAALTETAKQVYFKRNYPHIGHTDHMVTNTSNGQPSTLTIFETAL
# assay-info: TP_TRANSPORTER: inhibition of bimane-GS efflux in the presence of Methotrexate at a concentration of 100uM in MRP4-expressing HepG2 cells
# Format: functional, cell-based
# Design: scale not given: the % may be the effect or the level left
# experimental-parameters: probe bimane-GS, read-out: Activity
observation-type: activity at 100 µM
In your response, put the unit directly after the numeric value.

activity at 100 µM for MRP4 (ATP-binding cassette sub-family C member 4) (Homo sapiens, UniProt O15439) with input CN(Cc1cnc2nc(N)nc(N)c2n1)c1ccc(C(=O)N[C@@H](CCC(=O)O)C(=O)O)cc1 [METHOTREXATE] equals 53%
